Provide the recorded viability, T/C for the entries that follow.
Tested on: 885724-159-R-J1-PDC complex spheroid viability;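 also: spheroids exposed to compounds for 7 days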
Test Description: Anticancer human tumor 885724-159-R-J1-PDC patient-derived pancreatic adenocarcinoma cell line growth inhibition [POLQ]
Test Context: second compound 3.16 µM; first compound 0.0316 µM; stronger effect = lower value
Please give a number only; it is taken to be in %.

Q: Quick one: viability, T/C for CC[C@@]1(O)C(=O)OCc2c1cc1n(c2=O)Cc2cc3c(CN(C)C)c(O)ccc3nc2-1 + Cc1cccc(N(C)C(=O)C2C(O)CCN2c2nc(C)cc(C(F)(F)F)c2C#N)c1 ?
Result: 71.6

Q: Which measured viability, T/C value corresponds to O=C(c1cc(Cc2n[nH]c(=O)c3ccccc23)ccc1F)N1CCN(C(=O)C2CC2)CC1 + COC1C(OC(N)=O)C(O)C(Oc2ccc3c(O)c(NC(=O)c4ccc(O)c(CC=C(C)C)c4)c(=O)oc3c2C)OC1(C)C ?
Result: 96.4

Q: What does the data say about its viability, T/C? Entry: COc1cccc(OCCCN)c1-c1cc(Nc2cnc(C#N)cn2)n[nH]1 + COC1C(OC(N)=O)C(O)C(Oc2ccc3c(O)c(NC(=O)c4ccc(O)c(CC=C(C)C)c4)c(=O)oc3c2C)OC1(C)C
Result: 44.6

Q: Any idea what viability, T/C was measured for O=c1[nH]cc(F)c(=O)[nH]1 + Cc1cccc(N(C)C(=O)C2C(O)CCN2c2nc(C)cc(C(F)(F)F)c2C#N)c1 ?
Result: 114

Q: Suppose we examine the molecule COc1cccc(OCCCN)c1-c1cc(Nc2cnc(C#N)cn2)n[nH]1 + Nc1ccc(C#CCN(C(=O)Cc2ncc(C(F)(F)F)cc2C(F)(F)F)c2ccc(F)cc2)nn1 ; what viability, T/C value has been reported?
Result: 46.6

Q: Need viability, T/C of CCc1cc2c(N3CCc4c(cc(Cn5ccnc5)cc4-c4cn(C)nc4C(F)(F)F)C3=O)ccnc2c(OC)n1 + Cc1cccc(N(C)C(=O)C2C(O)CCN2c2nc(C)cc(C(F)(F)F)c2C#N)c1 , thanks.
Result: 94.2

Q: Please give the measured viability, T/C for this molecule: O=C(c1cc(Cc2n[nH]c(=O)c3ccccc23)ccc1F)N1CCN(C(=O)C2CC2)CC1 + Cc1cccc(N(C)C(=O)C2C(O)CCN2c2nc(C)cc(C(F)(F)F)c2C#N)c1
Result: 92

Q: Any idea what viability, T/C was measured for CC1COCCN1c1cc(C2(O)CC3CCC(C2)O3)c2cnn(-c3ccn[nH]3)c2n1 (stereo unspecified) + COC1C(OC(N)=O)C(O)C(Oc2ccc3c(O)c(NC(=O)c4ccc(O)c(CC=C(C)C)c4)c(=O)oc3c2C)OC1(C)C ?
Result: 68.1

Q: viability, T/C for CC[C@@]1(O)C(=O)OCc2c1cc1n(c2=O)Cc2cc3c(CN(C)C)c(O)ccc3nc2-1 + Nc1ccc(C#CCN(C(=O)Cc2ncc(C(F)(F)F)cc2C(F)(F)F)c2ccc(F)cc2)nn1 ?
Result: 85.1

Q: Recorded viability, T/C of CC(C)n1c(=O)n(C)c2cnc3cc(F)c(-c4ccc(OCCCN5CCCCC5)nc4)cc3c21 + Cc1cccc(N(C)C(=O)C2C(O)CCN2c2nc(C)cc(C(F)(F)F)c2C#N)c1 , please.
Result: 106

Q: viability, T/C lookup needed for C#Cc1c(F)ccc2cc(O)cc(-c3ncc4c(N5CC6CCC(C5)N6)nc(OCC56CCCN5CC(F)C6)nc4c3F)c12 (stereo unspecified) + Cc1cccc(N(C)C(=O)C2C(O)CCN2c2nc(C)cc(C(F)(F)F)c2C#N)c1 , thanks.
Result: 92.8
